# assay text: in vitro
# study conditions: pampa, pH 6.5
# Description: Apparent permeability of compound at pH 6.5 by PAMPA
I would appreciate it if you labelled entries 1 (yes) when Papp is 3 ×10⁻⁶ cm/s or higher, otherwise 0 (no).

| smiles | label class |
| --- | --- |
| CCN(CCO)CCCC#C[C@H]1CC[C@H](N(C)C(=O)Oc2ccc(Cl)cc2)CC1.Cl | 0 (no) |
| C=CCN(C)CCCCCCOc1ccc2c(-c3ccc(Br)cc3)nsc2c1.O=C(O)/C=C/C(=O)O | 0 (no) |
| CN(CC[C@H]1CC[C@H](C(=O)N2CCC(O)CC2)CC1)C(=O)Oc1ccc(Cl)cc1 | 1 (yes) |
| CN(CCO)CCCCC[C@H]1CC[C@H](N(C)S(=O)(=O)c2ccc(C(F)(F)F)cc2)CC1.O=C(O)/C=C/C(=O)O | 0 (no) |
| CCN(CCO)C[C@H]1CC[C@H](CCN(C)C(=O)Oc2ccc(C(F)(F)F)cc2)CC1.O=C(O)CC(O)(CC(=O)O)C(=O)O | 1 (yes) |
| CCN(CCO)CCCCOc1ccc2c(-c3ccc(Br)cc3)nsc2c1.Cl | 0 (no) |
| C=CCN(C)Cc1ccc(-c2ccc(C(=O)c3ccc(Br)cc3)cc2)cc1.Cl | 0 (no) |
| C=CCN(C)CCCCC[C@H]1CC[C@H](N(C)C(=O)Oc2ccc(C(F)(F)F)cc2)CC1.O=C(O)CC(O)(CC(=O)O)C(=O)O | 1 (yes) |
| C=CCN(C)CCCCCCOc1ccc(C(=O)c2ccc(Br)cc2)c(F)c1.O=C(O)/C=C/C(=O)O | 0 (no) |
| CCCN(C)CCCC#C[C@H]1CC[C@H](N(C)C(=O)Oc2ccc(Cl)cc2)CC1.O=C(O)/C=C/C(=O)O | 0 (no) |

====

The reader will find reported IC50 values listed item by item below.
# Tested on: KB
# assay text: Cytotoxicity against human KB cells after 72 hrs by MTT assay
# Format: functional, cell-based
assay readout: IC50

| smiles | system tested | assay readout | result |
| --- | --- | --- | --- |
| C=CCN(C)CCCCC[C@H]1CC[C@H](N(C)C(=O)Oc2ccc(C(F)(F)F)cc2)CC1.O=C(O)CC(O)(CC(=O)O)C(=O)O | KB | IC50 | 1.02 µM |
| CCN(CCO)CCCC#C[C@H]1CC[C@H](N(C)C(=O)Oc2ccc(Cl)cc2)CC1.Cl | KB | IC50 | 5.86 µM |
| CN(CC[C@H]1CC[C@H](C(=O)N2CCC(O)CC2)CC1)C(=O)Oc1ccc(Cl)cc1 | KB | IC50 | 7.58 µM |
| CCCN(C)CCCC#C[C@H]1CC[C@H](N(C)C(=O)Oc2ccc(Cl)cc2)CC1.O=C(O)/C=C/C(=O)O | KB | IC50 | 4.53 µM |

====

The reader will find reported permeability values listed item by item below.
# study conditions: pampa, pH 6.5
# Description: Permeability of compound at pH 6.5 assessed as compound binding to lipid membrane by PAMPA

| smiles | permeability / % |
| --- | --- |
| C=CCN(C)CCCCC[C@H]1CC[C@H](N(C)C(=O)Oc2ccc(C(F)(F)F)cc2)CC1.O=C(O)CC(O)(CC(=O)O)C(=O)O | 25 |
| CCN(CCO)CCCC#C[C@H]1CC[C@H](N(C)C(=O)Oc2ccc(Cl)cc2)CC1.Cl | 10 |
| CCCN(C)CCCC#C[C@H]1CC[C@H](N(C)C(=O)Oc2ccc(Cl)cc2)CC1.O=C(O)/C=C/C(=O)O | 0 |
| CCN(CCO)CCCCOc1ccc2c(-c3ccc(Br)cc3)nsc2c1.Cl | 37 |
